tested on: human PCSK9 protein; assay: Protein ELISA: titers of vaccine-induced PCSK9-specific antibodies in plasma of immunized mice; format: in vivo, BALB/c mice; settings: mean titer, n=5 BALB/c mice/group; s.c. 4 x 15 μg net peptide coupled to KLH, Alhydrogel; plasma 2 weeks after final injection; titer = serum dilution at 50% ODmax
Reported titers against huPCSK9 (ODmax/2) values for the following substances.
OBSERVABLE: titers against huPCSK9 (ODmax/2)

SUBSTANCE | NUMERIC READOUT
17 (PEEDGTRFHRRASK) [compound 17] | 28996
27 (PEEDKTRFHRQASK) [compound 27] | 7154
21 (PEEDGTRFHRQANK) [compound 21] | 15303
33 (PEEDGTRFMRQASK) [compound 33] | 10651
19 (PEEDGTRFHRQSSK) [compound 19] | 41310
43 (PEEDGSRFHRRASK) [compound 43] | 29435
16 (PEEDGTRFHREASK) [compound 16] | 18670
23 (PEEDGTRFHRQASR) [compound 23] | 14722
28 (PEEDGTGFHRQASK) [compound 28] | 0
11 (PKEDGTRFHRQASK) [compound 11] | 6610
9 (TEEDGTRFHRQASK) [compound 9] | 23944
22 (PEEDGTRFHRQALK) [compound 22] | 8694

====

test system: human PCSK9 protein; experiment: Protein ELISA: titers of vaccine-induced PCSK9-specific antibodies in plasma of immunized mice; type: in vivo, BALB/c mice; conditions: mean titer, n=5 BALB/c mice/group; s.c. 4 x 15 μg net peptide coupled to KLH, Alhydrogel; plasma 2 weeks after final injection; titer = serum dilution at 50% ODmax
Recorded titers against huPCSK9 (ODmax/2) values for a group of substances are listed next.
OBSERVABLE: titers against huPCSK9 (ODmax/2)

SUBSTANCE | STUDY TARGET | OBSERVABLE | NUMERIC READOUT
31 (PEEDGTRFVRQASK) [compound 31] | human PCSK9 protein | titers against huPCSK9 (ODmax/2) | 11850
8 (PEEDGTRFHRQASA) [compound 8] | human PCSK9 protein | titers against huPCSK9 (ODmax/2) | 23638
32 (PEEDGTRFGRQASK) [compound 32] | human PCSK9 protein | titers against huPCSK9 (ODmax/2) | 822
12 (PEEDGSRFHRQASK) [compound 12] | human PCSK9 protein | titers against huPCSK9 (ODmax/2) | 12636
18 (PEEDGTRFHRKASK) [compound 18] | human PCSK9 protein | titers against huPCSK9 (ODmax/2) | 30537
41 (PEEDGSRFHKQASK) [compound 41] | human PCSK9 protein | titers against huPCSK9 (ODmax/2) | 37296
24 (PEEDGTRFHRQASL) [compound 24] | human PCSK9 protein | titers against huPCSK9 (ODmax/2) | 19471
